- TARGET_OR_SYSTEM: Gal2 permease (Saccharomyces cerevisiae, UniProt P13181, G90S/H392R/M8V/S50P)
- Construct: expressed in transfected cells; host or cells: S. cerevisiae BFY597 (gal2Δ::HIS3, plasmids p138 and p42)
- Sequence (P13181 whole entry M8V/S50P/G90S/H392R): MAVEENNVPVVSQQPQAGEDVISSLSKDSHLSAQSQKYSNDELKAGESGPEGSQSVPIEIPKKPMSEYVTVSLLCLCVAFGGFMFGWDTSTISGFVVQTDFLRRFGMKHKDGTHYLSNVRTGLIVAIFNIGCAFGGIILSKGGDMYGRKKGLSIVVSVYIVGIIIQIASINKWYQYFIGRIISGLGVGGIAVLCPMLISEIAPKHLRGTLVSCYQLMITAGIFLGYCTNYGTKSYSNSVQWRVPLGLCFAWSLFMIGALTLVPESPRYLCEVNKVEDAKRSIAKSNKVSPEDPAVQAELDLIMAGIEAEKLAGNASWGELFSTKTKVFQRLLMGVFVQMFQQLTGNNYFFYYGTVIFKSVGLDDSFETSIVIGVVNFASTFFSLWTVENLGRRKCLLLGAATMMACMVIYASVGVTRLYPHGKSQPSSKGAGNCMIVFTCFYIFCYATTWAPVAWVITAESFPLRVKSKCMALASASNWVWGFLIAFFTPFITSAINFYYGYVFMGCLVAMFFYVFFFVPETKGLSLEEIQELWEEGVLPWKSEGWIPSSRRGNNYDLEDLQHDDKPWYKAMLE
- Assay type: cell-based, S. cerevisiae
- CONDITION_LABEL: inhibitor NaN3 10 mM, others 5 mM; […] labeled L-arabinose; no inhibitor = 100
Answer each item with its documented Relative L-arabinose transport (%) Gal2.
Please state the figure in %; there is no need to write the unit.

### Prompt Report Relative L-arabinose transport (%) Gal2 for [N-]=[N+]=[N-].[Na+] please.
### Response 66

### Prompt Subsequent entry: N#CC(C#N)=NNc1cccc(Cl)c1
### Response 46

### Prompt Subsequent entry: CC/C(=C(/CC)c1ccc(O)cc1)c1ccc(O)cc1
### Response 81

### Prompt Subsequent entry: O=[N+]([O-])c1ccc(O)c([N+](=O)[O-])c1
### Response 72

### Prompt Subsequent entry: C(=NC1CCCCC1)=NC1CCCCC1
### Response 69
